Quick reference for IC50 among some compounds
Target desc: Polyunsaturated fatty acid 5-lipoxygenase (Homo sapiens, UniProt P09917)
Sequence (P09917 whole entry): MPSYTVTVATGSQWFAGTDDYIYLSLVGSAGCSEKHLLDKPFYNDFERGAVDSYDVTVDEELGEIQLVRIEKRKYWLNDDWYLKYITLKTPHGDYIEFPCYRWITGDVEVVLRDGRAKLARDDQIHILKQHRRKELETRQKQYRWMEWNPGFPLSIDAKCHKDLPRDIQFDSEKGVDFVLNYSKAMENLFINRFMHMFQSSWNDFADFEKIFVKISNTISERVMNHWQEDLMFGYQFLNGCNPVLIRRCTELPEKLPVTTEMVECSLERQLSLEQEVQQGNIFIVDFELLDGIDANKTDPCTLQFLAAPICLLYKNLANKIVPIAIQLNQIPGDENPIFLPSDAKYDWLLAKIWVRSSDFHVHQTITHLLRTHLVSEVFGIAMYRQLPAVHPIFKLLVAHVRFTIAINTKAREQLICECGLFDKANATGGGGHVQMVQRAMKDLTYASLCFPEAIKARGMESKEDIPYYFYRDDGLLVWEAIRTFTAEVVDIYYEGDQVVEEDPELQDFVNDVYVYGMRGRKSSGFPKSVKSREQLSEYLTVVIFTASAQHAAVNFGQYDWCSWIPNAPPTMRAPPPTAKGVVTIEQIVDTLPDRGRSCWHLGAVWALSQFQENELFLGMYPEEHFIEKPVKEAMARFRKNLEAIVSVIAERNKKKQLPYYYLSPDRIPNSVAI
Run description: The compound was tested in vitro for inhibition against 5-lipoxygenase in intact human neutrophils
Lab book: enter the figure in nM, no units written.

# Compound, IC50, nM
records = [
    ("NC(=O)N(O)[C@H]1C[C@H](c2cc3ccccc3s2)C1", 380),
    ("CC(/C=C/c1cccc(Oc2ccc(F)cc2)c1)N(O)C(N)=O (stereo not drawn)", 80),
]

Would you kindly look at the next entry?
May I ask what IC50 has been recorded for NC(=O)N(O)[C@H]1C[C@@H](c2cccc(Oc3ccc(F)cc3)c2)C1 ?
170
